# experimentalSystem: SIK3 kinase (aa59-365, Thermo Fisher) (Homo sapiens)
# Construct: SIK3 kinase (aa59-365, Thermo Fisher); purchased Thermo Fisher
# assayProcedure: Biochemical activities determination for SIK3 protein (TR-FRET)
# experimentalParameters: 125 uM ATP, 0.5 μM STK1 substrate
Recorded measurements of IC50, one per entry
Please respond with the number in nM and leave the unit unwritten.

COc1cc(-c2coc3cc(-c4cnn(C)c4)ccc23)cc(OC)c1-c1nnc(C)o1 [Compound 34] | 420
CN1CCC(n2cc(-c3ccc4c(-c5cc6c(c(OC(F)F)c5)C(=O)N(CC#N)CC6)coc4c3)cn2)CC1 [Compound 55] | 18
COc1cc(-c2coc3cc(OCCN4CCCC[C@H]4C)ccc23)cc(OC(F)F)c1C(=O)N[C@@H]1C[C@@H]1F [Compound 92] | 104
COc1cc(-c2coc3cc(OCCN4CCC(F)(F)C4)ccc23)cc(OC(F)F)c1C(=O)N[C@@H]1C[C@@H]1F [Compound 87] | 22
COc1cc(-c2coc3cc(-c4cnn(C5CCOCC5)c4)ccc23)cc2c1C(=O)N(CC(F)(F)F)CC2 [Compound 50] | 34
COc1cc(-c2coc3cc(-c4cnn(C)c4)ccc23)cc2c1C(=O)N(Cc1ccccc1)CC2 [Compound 31] | 882

Now turn to the next compound.
Exercise: Provide measured IC50 value, entry: O=C1c2c(cc(-c3coc4cc(-c5cnn(C6CNC6)c5)ccc34)cc2OC(F)F)CCN1CC(F)(F)F [Compound 42]
Solution: 115

---

# experimentalSystem: SIK1 kinase (aa1-303, Thermo Fisher) (Homo sapiens, UniProt P57059)
# Construct: SIK1 kinase (aa1-303, Thermo Fisher); purchased Thermo Fisher
# Sequence (P57059 1-303): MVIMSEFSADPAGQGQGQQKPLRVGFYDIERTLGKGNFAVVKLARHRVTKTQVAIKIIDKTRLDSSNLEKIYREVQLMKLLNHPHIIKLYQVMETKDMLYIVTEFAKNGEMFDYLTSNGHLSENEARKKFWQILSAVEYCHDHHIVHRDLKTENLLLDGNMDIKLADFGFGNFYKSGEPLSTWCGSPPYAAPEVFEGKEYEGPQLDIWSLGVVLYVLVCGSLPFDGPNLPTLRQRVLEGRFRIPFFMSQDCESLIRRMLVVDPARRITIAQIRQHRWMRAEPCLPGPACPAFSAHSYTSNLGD
# assayProcedure: Biochemical activities determination for SIK1 protein (TR-FRET)
# experimentalParameters: 110 uM ATP, 0.5 μM STK1 substrate
Recorded measurements of IC50, one per entry
Please respond with the number in nM and leave the unit unwritten.

COc1cc(-c2coc3cc(OCCN4CCCC4)ccc23)cc(OC(F)F)c1C(=O)NC1CC1(F)F (centres unmarked) | 3590
COc1cc(-c2coc3cc(-c4cnn(C)c4)ccc23)cc2c1C(=O)N(CC(F)(F)F)[C@@H](C)C2 [Compound 29A] | 216
O=C1c2c(cc(-c3coc4cc(-c5cnn(C6CCOCC6)c5)ccc34)cc2OC(F)F)CCN1CC(F)(F)F | 1710
COc1cc(-c2coc3cc(OCCN4CCCC[C@H]4C)ccc23)cc(OC(F)F)c1C(=O)N[C@@H]1C[C@@H]1F | 3010
COc1cc(-c2coc3cc(-c4cnn(C5CCOC5)c4)ccc23)cc2c1C(=O)N(CC(F)(F)F)CC2 (centres unmarked) | 337

Exercise: System SIK1 kinase (aa1-303, Thermo Fisher) (Homo sapiens, UniProt P57059). Read-out IC50. Item COc1cc(-c2coc3cc(-c4cc(C)n[nH]4)ccc23)cc2c1C(=O)N(CC(F)(F)F)CC2 . Report value.
Solution: 538

Exercise: System SIK1 kinase (aa1-303, Thermo Fisher) (Homo sapiens, UniProt P57059). Read-out IC50. Item COc1cc(-c2coc3cc(OCCCN4CCN(C)CC4)ccc23)cc(OC(F)F)c1C(=O)N[C@@H]1C[C@@H]1F . Report value.
Solution: 236

Exercise: System SIK1 kinase (aa1-303, Thermo Fisher) (Homo sapiens, UniProt P57059). Read-out IC50. Item O=C1c2c(cc(-c3coc4cc(-c5cnn(C6CCNC6)c5)ccc34)cc2OC(F)F)CCN1CC(F)(F)F (centres unmarked) . Report value.
Solution: 524

Exercise: System SIK1 kinase (aa1-303, Thermo Fisher) (Homo sapiens, UniProt P57059). Read-out IC50. Item COc1cc(-c2coc3cc(-c4cnn(C(C)C)c4)ccc23)cc2c1C(=O)N(CC(F)(F)F)CC2 . Report value.
Solution: 476

Exercise: System SIK1 kinase (aa1-303, Thermo Fisher) (Homo sapiens, UniProt P57059). Read-out IC50. Item COc1cc(-c2coc3cc(-c4cnn(C5CCN(C)CC5)c4)ccc23)cc(OC(F)F)c1C(=O)N[C@@H]1C[C@@H]1F . Report value.
Solution: 25

Exercise: System SIK1 kinase (aa1-303, Thermo Fisher) (Homo sapiens, UniProt P57059). Read-out IC50. Item COc1cc(-c2coc3cc(-c4cnn(C5CN(C)C5)c4)ccc23)cc2c1C(=O)N(CC(F)(F)F)CC2 . Report value.
Solution: 294

---

# experimentalSystem: SIK1 kinase (aa1-303, Thermo Fisher) (Homo sapiens, UniProt P57059)
# Construct: SIK1 kinase (aa1-303, Thermo Fisher); purchased Thermo Fisher
# assayProcedure: Biochemical activities determination for SIK1 protein (TR-FRET)
# experimentalParameters: 110 uM ATP, 0.5 μM STK1 substrate
endpointName: log10 of IC50 (log10 of the value in nM)
Hi team, quick reminder: these entries are log10 of IC50 (nM).

# annotated cases, reported log10 of IC50 shown
COc1cc(-c2coc3cc(OCCN4CCC[C@@H]4C)ccc23)cc(OC(F)F)c1C(=O)N[C@@H]1C[C@@H]1F [Compound 80] | 3.45
CC[C@H]1CCN(CCOc2ccc3c(-c4cc(OC)c(C(=O)N[C@@H]5C[C@@H]5F)c(OC(F)F)c4)coc3c2)C1 [Compound 96] | 3.31
COc1cc(-c2coc3cc(OCCCN4CCOCC4)ccc23)cc(OC(F)F)c1C(=O)N[C@@H]1C[C@@H]1F [Compound 86] | 2.75
CCOc1cc(-c2coc3cc(OCCN4CCCC4)ccc23)cc(OC(F)F)c1C(=O)NC1CC1 [Compound 119] | 3.86
COc1cc(-c2coc3cc(-c4cnn(C)c4)ccc23)cc2c1C(=O)N(CC(F)(F)F)CC2(C)C [Compound 33] | 3.96

Exercise: System SIK1 kinase (aa1-303, Thermo Fisher) (Homo sapiens, UniProt P57059). Read-out log10 of IC50. Item CN1CCC(n2cc(-c3ccc4c(-c5cc6c(c(OC(F)F)c5)C(=O)N(CC(F)(F)F)CC6)coc4c3)cn2)CC1 [Compound 46] . Report value.
Solution: 2.63

Exercise: System SIK1 kinase (aa1-303, Thermo Fisher) (Homo sapiens, UniProt P57059). Read-out log10 of IC50. Item COc1cc(-c2coc3cc(OCCN4CCCC4)ccc23)cc(OC(F)F)c1C(=O)N[C@@H]1C[C@H]1F [Compound 97] . Report value.
Solution: 3.92

Exercise: System SIK1 kinase (aa1-303, Thermo Fisher) (Homo sapiens, UniProt P57059). Read-out log10 of IC50. Item CN1CCC(n2cc(-c3ccc4c(-c5cc6c(c(OC(F)F)c5)C(=O)N(CC(F)(F)F)CC6)coc4c3)cn2)C1 (stereo not drawn) [Compound 47] . Report value.
Solution: 2.53

Exercise: System SIK1 kinase (aa1-303, Thermo Fisher) (Homo sapiens, UniProt P57059). Read-out log10 of IC50. Item COc1cc(-c2coc3cc(-c4cnn(C5CN(CCC#N)C5)c4)ccc23)cc2c1C(=O)N(CC(F)(F)F)CC2 [Compound 54] . Report value.
Solution: 2.51

---

Recorded measurements of IC50, one per entry
# experimentalSystem: SIK3 kinase (aa59-365, Thermo Fisher) (Homo sapiens, UniProt Q9Y2K2)
# Construct: SIK3 kinase (aa59-365, Thermo Fisher); purchased Thermo Fisher
# Sequence (Q9Y2K2 59-365): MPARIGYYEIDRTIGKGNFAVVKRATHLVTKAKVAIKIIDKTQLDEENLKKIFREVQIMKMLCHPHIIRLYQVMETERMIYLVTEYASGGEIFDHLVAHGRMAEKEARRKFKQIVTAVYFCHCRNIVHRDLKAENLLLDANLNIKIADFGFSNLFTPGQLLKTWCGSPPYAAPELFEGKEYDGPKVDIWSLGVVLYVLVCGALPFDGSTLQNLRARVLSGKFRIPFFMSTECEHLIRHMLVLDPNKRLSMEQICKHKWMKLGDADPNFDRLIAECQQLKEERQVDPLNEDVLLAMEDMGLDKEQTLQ
# assayProcedure: Biochemical activities determination for SIK3 protein (TR-FRET)
# experimentalParameters: 125 uM ATP, 0.5 μM STK1 substrate
Please respond with the number in nM and leave the unit unwritten.

COc1cc(-c2coc3cc(OCCN4CCCCC4)ccc23)cc(OC(F)F)c1C(=O)N[C@@H]1C[C@@H]1F [Compound 70] | 42
COc1cc(-c2coc3cc(OCCCN4CCOCC4)ccc23)cc(OC(F)F)c1C(=O)N[C@@H]1C[C@@H]1F [Compound 86] | 43
COc1cc(-c2coc3cc(-c4cn(C)cn4)ccc23)cc2c1C(=O)N(CC(F)(F)F)CC2 [Example 7] | 60

Now turn to the next molecule.
Exercise: Provide measured IC50 value, entry: COc1cc(-c2coc3cc(OCCN4CCCC4)ccc23)cc2c1C(=O)N(CC(F)(F)F)CC2 [Compound 59]
Solution: 348

---

# experimentalSystem: SIK2 kinase (full length, Thermo Fisher) (Homo sapiens)
# Construct: SIK2 kinase (full length, Thermo Fisher); purchased Thermo Fisher
# Sequence (Q9H0K1 whole entry): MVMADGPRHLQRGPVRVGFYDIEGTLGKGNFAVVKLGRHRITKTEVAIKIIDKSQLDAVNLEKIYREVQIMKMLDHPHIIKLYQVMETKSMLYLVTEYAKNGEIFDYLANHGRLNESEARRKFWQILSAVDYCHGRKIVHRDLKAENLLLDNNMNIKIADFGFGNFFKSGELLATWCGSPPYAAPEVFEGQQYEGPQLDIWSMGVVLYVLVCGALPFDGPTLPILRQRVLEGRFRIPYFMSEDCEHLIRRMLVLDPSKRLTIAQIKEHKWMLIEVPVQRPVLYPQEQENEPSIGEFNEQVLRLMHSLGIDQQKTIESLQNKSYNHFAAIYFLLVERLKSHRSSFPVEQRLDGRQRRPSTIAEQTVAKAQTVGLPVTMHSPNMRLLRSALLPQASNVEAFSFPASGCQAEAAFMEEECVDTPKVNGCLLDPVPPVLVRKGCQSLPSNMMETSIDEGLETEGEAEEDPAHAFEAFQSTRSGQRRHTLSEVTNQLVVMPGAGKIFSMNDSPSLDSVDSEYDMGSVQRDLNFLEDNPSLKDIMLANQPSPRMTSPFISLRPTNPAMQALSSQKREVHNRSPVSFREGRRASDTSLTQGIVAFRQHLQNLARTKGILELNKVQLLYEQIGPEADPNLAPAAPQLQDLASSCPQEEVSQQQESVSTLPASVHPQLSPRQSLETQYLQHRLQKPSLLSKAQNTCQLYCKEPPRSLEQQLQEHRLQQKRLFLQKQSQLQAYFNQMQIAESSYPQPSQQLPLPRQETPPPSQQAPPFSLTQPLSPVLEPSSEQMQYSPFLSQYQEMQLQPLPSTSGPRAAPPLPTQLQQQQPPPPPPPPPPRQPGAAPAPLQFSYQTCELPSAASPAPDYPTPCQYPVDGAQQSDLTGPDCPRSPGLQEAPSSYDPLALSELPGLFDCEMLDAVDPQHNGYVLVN
# assayProcedure: Biochemical activities determination for SIK2 protein (TR-FRET)
# experimentalParameters: 80 uM ATP, 0.5 μM substrate
# Method: 2. Biochemical Activities Determination for SIK2 Protein Compounds were tested for inhibition of SIK2 kinase (full length, Thermo Fisher) in assays based on the time-resolved fluorescence-resonance energy transfer (TR-FRET) methodology. […] Plates were sealed and incubated at room temperature for overnight, and the TR-FRET signals (ratio of fluorescence emission at 665 nm over emission at 620 nm with excitation at 337 nm wavelength) were recorded on a PHERAstar FS plate reader (BMG Labtech). […]
Recorded measurements of log10 IC50, one per entry
Hi team, quick reminder: these entries are log10 of IC50 (nM).

# annotated cases, reported log10 IC50 shown
COc1cc(-c2coc3cc(-c4cn(C)nc4C(F)(F)F)ccc23)cc2c1C(=O)N(CC(F)(F)F)CC2 [Compound 16] | 3.53
COc1cc(-c2coc3cc(OCCN4CC[C@@H](F)C4)ccc23)cc(OC(F)F)c1C(=O)N[C@@H]1C[C@@H]1F [Compound 71] | 1.68
COc1cc(-c2coc3cc(-c4cnn(C)c4)ccc23)cc(OC(F)F)c1C(=O)NC1CC1 [Compound 132] | 1.11
COc1cc(-c2coc3cc(OCCN4CCC(C(F)(F)F)C4)ccc23)cc(OC(F)F)c1C(=O)N[C@@H]1C[C@@H]1F (stereo partly drawn) [Compound 76] | 1.53
COc1cc(-c2coc3cc(OCCN4CCN(C)CC4)ccc23)cc(OC(F)F)c1C(=O)N[C@@H]1C[C@@H]1F [Compound 83] | 1.11

Exercise: Provide measured log10 IC50 value, entry: COc1cc(-c2coc3cc(OCCN4CC[C@@H](C)C4)ccc23)cc(OC(F)F)c1C(=O)N[C@@H]1C[C@@H]1F [Compound 78]
Solution: 1.28

Exercise: Provide measured log10 IC50 value, entry: COc1cc(-c2coc3cc(-c4cnn(C)c4)ccc23)cc2c1C(=O)N(Cc1ccncc1)CC2 [Compound 30]
Solution: 2.73

Exercise: Provide measured log10 IC50 value, entry: N#CCCN1CC(n2cc(-c3ccc4c(-c5cc6c(c(OC(F)F)c5)C(=O)N(CC(F)(F)F)CC6)coc4c3)cn2)C1 [Compound 45]
Solution: 0.99

Exercise: Provide measured log10 IC50 value, entry: COc1cc(-c2coc3cc(OCCN4CCCC4)ccc23)cc(OC(F)F)c1C(=O)N[C@@H]1C[C@@H]1F [Compound 67]
Solution: 1.36

Exercise: Provide measured log10 IC50 value, entry: COc1cc(-c2coc3cc(OCCN4CCCC4)ccc23)cc2c1C(=O)N(CC(F)(F)F)CC2 [Compound 59]
Solution: 1.89

Exercise: Provide measured log10 IC50 value, entry: COc1cc(-c2coc3cc(OCCN4CCCC4)ccc23)cc2c1C(=O)N(CC#N)CC2 [Compound 65]
Solution: 2.01

Exercise: Provide measured log10 IC50 value, entry: COc1cc(-c2coc3cc(-c4cn(C)nc4C)ccc23)cc2c1C(=O)N(CC(F)(F)F)CC2 [Compound 15]
Solution: 1.98

Exercise: Provide measured log10 IC50 value, entry: COc1cc(-c2coc3cc(OCCN4CCCC4)ccc23)cc(OC(F)F)c1C(=O)NC1CCCC1N (racemic) [Compound 130]
Solution: 2.01

Exercise: Provide measured log10 IC50 value, entry: COc1cc(-c2coc3cc(OCCN4CCCC4)ccc23)cc(OC(F)F)c1C(=O)NC1CCCC1 [Compound 128]
Solution: 2.19

Exercise: Provide measured log10 IC50 value, entry: CC(C)(O)COc1cc(-c2coc3cc(OCCN4CCCC4)ccc23)cc(OC(F)F)c1C(=O)NC1CC1 [Compound 108]
Solution: 3.44
